SYSTEM: Cytochrome P450 2C19 (Homo sapiens)
TEST_PROTOCOL: blockers of cytochrome P450 2C19 activity – biochemical, luminescence, ADME assay, primary screen (AID 778)
CONDITION_SUMMARY: CYP2C19 Supersomes, luciferin-H EGE luminescence, 30 min; at 5 µM
Among all 96,000 compounds or so, about 20,000 (21%) were called active.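 The calls were made as follows: active = CYP2C19 inhibition above a set limit at 5 µM in the primary screen (cut at about 50% in these data); inactive = the rest.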 The list is a sample of the results.
Give one outcome, nothing more. List: active, inactive

Recorded call for CS(=O)(=O)NCc1ccc(C(=O)NCc2ccccc2)cc1 ?
inactive

Recorded call for CC(C)[C@H](NC(=O)Nc1ccc(S(N)(=O)=O)cc1)C(=O)O ?
inactive

Recorded call for CC(C)c1ccc(-c2noc(C3CCCN(S(C)(=O)=O)C3)n2)cc1 (configuration not stated) ?
inactive

Recorded call for O=C(NC(Nc1nc2ccc([N+](=O)[O-])cc2s1)(C(F)(F)F)C(F)(F)F)c1ccccc1 ?
inactive

Recorded call for CCOc1cc(C2C(C(=O)OC)=CN(C3CCCC3)C=C2C(=O)OC)cc(Br)c1O ?
inactive

Recorded call for CC(NC(=O)Nc1ccccc1)c1ccccc1 (configuration not stated) ?
inactive

Recorded call for CCOC(=O)N1CCC(N(CCOC)C(=O)Nc2ccc(C)c(C)c2)CC1 ?
inactive

Recorded call for C/C(=C\C(=O)c1ccccc1)Nc1cccc(O)c1 ?
inactive

Recorded call for Cc1nc(CNS(=O)(=O)c2cccnc2)cs1 ?
inactive

Recorded call for CC1(C)CC(CCC(=O)Nc2ccccc2Cl)C(=O)O1 (configuration not stated) ?
inactive

Recorded call for CC(c1ccco1)N(C(=O)Nc1ccccc1)C1CCCCC1 (configuration not stated) ?
active

Recorded call for C=CCn1c2ccccc2c2nnc(SC(CC)C(=O)Nc3nc(C)c(C(=O)OCC)s3)nc21 (configuration not stated) ?
inactive
